- assayed system: α4β7 integrin (Homo sapiens (Human), UniProt P13612+P26010)
- Sequence (P13612 34-1032): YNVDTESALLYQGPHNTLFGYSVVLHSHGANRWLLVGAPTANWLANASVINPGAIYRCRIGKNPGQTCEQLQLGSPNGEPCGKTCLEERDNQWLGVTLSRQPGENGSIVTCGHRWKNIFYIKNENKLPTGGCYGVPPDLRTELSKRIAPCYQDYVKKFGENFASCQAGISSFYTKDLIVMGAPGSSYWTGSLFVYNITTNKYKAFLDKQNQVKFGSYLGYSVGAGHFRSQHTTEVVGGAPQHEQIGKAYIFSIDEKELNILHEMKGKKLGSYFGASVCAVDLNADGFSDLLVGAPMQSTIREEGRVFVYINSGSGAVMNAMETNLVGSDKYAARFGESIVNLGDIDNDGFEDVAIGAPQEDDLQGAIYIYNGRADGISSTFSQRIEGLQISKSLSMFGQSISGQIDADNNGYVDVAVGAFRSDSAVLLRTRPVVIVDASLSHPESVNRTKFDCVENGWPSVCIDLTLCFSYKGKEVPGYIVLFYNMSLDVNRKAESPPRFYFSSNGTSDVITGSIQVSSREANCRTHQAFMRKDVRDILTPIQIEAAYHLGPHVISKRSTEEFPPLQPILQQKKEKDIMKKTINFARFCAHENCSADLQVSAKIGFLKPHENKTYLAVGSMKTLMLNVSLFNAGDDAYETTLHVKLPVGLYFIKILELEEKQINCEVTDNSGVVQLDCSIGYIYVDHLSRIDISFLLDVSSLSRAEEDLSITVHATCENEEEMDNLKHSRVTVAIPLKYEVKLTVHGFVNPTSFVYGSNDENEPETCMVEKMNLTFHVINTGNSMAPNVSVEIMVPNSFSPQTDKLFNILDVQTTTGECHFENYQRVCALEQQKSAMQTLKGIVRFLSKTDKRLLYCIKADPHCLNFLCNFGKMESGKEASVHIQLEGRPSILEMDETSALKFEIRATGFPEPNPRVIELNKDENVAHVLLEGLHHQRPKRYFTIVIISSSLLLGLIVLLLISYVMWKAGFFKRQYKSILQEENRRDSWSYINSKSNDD
- Sequence (P26010 20-798): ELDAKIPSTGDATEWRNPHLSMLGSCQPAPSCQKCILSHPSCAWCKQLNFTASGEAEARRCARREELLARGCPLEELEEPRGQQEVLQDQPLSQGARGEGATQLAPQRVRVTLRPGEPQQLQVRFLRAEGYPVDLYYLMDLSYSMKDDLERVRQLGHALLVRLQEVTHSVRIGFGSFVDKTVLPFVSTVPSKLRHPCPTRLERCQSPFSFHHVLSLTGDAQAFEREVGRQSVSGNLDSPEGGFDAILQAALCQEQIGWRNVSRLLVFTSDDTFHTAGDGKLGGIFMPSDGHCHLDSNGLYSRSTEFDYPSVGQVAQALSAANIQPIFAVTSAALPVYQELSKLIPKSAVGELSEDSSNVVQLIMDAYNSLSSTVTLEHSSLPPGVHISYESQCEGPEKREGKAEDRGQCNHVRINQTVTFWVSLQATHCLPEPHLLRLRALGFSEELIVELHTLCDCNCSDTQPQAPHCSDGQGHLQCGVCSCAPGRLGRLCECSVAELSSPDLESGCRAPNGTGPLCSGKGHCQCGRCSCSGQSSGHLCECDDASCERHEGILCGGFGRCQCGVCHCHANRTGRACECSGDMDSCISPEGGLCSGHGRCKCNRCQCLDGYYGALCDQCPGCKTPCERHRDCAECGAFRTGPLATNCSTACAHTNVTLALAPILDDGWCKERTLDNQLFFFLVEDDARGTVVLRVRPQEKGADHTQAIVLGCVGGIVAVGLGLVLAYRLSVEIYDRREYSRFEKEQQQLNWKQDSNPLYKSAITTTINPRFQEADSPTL
- test description: Integrin Adhesion Assay: Protocol 4 (MAdCAM-coated plate, RPMI-8866 cells with stable LOF mutation of the ITGB1 gene)
- Type: cell-based
- experimental setup: Protocol 4; RPMI-8866 cells with LOF mutation of ITGB1, MAdCAM; read-out: Mean IC50 α4β7 KO
Each entry below carries its reported IC50.

Prompt: Look up IC50: COc1cc2c(c(C(F)(F)F)c1-c1cccc3c(C[C@H](NC(=O)C4(C(F)(F)F)CCN(CC(F)(F)F)CC4)C(=O)O)cccc13)CCN(C)C2
Response: < 10 nM

Prompt: Need IC50 of O=C(O)[C@H](Cc1cccc2c(-c3nccc4ccc(CCCN5CCC6(CC5)CC6)cc34)cccc12)NC(=O)C1(C(F)(F)F)CCN(CC(F)(F)F)CC1 , thanks.
Response: < 10 nM

Prompt: Look up IC50 for this compound: Cc1cc(CCN2CCCCC2)cnc1-c1cccc2c(C[C@H](NC(=O)C3(C(F)(F)F)CCN(CC(F)F)CC3)C(=O)O)cccc12
Response: < 10 nM

Prompt: Tell me the measured IC50 of COc1ccc(CCN2CCC(C)(C)CC2)c(OC)c1-c1cccc2c(C[C@H](NC(=O)C3(C(F)(F)F)CCN(CC(F)(F)F)CC3)C(=O)O)cccc12 , please.
Response: < 10 nM

Prompt: I'd like to know its IC50. The compound in question is O=C(O)[C@H](Cc1cccc2c(-c3ccc(CN4CCCCC4)c4ccncc34)cccc12)NC(=O)C1(C(F)(F)F)CCN(CC(F)(F)F)CC1
Response: < 10 nM

Prompt: // lookup IC50 for O=C(O)[C@H](Cc1cccc2c(-c3cc(CN4CCCCC4)cc4cccnc34)cccc12)NC(=O)C1(C(F)(F)F)CCN(CC(F)(F)F)CC1
Response: 10 to 100 nM

Prompt: // IC50 lookup, key: COc1cccc(CN2CCCCC2)c1-c1cccc2c(C[C@H](NC(=O)c3c(C)cccc3F)C(=O)O)cccc12
Response: < 10 nM

Prompt: Entry Cn1c(=O)c(-c2cccc3c(C[C@H](NC(=O)C4(C(F)(F)F)CCN(CC(F)(F)F)CC4)C(=O)O)cccc23)c(C(F)(F)F)c2cc(CN3CCC(F)(F)CC3)ccc21 has what IC50?
Response: 10 to 100 nM

Prompt: Report IC50 for COc1cccc(CN2CCC(C)(C)CC2)c1-c1cccc2c(C[C@H](NC(=O)C3(C(F)(F)F)CCN(CC(F)(F)F)CC3)C(=O)O)cccc12 please.
Response: 10 to 100 nM

Prompt: Look at this compound and give its reported IC50. O=C(O)[C@H](Cc1cccc2c(-c3ncc(CN4CC5CC(C5)C4)c4ccccc34)cccc12)NC(=O)C1(C(F)(F)F)CCN(CC(F)F)CC1
Response: < 10 nM

Prompt: Given CN(C)Cc1ccc(-c2cccc3c(C[C@H](NC(=O)C4(C(F)(F)F)CCN(CC(F)(F)F)CC4)C(=O)O)cccc23)c2cnccc12 , state its recorded IC50.
Response: < 10 nM

Prompt: Given the compound Cc1c(CN2CCCCC2)ccnc1-c1cccc2c(C[C@H](NC(=O)C3(C(F)(F)F)CCN(CC(F)(F)F)CC3)C(=O)O)cccc12 , what is its reported IC50?
Response: 10 to 100 nM
